Target: T1, human Notch1 NRR_Avi_His recombinant protein (human, UniProt P46531 1434-1737)
T1 construct: Secreted from CHO-PACE cells; cleaved at S1 into an N-terminal ~26 kDa half (LNR-A, B, C, HD1) and a C-terminal ~12 kDa half (HD2 and tag) that stay associated non-covalently; written here as one chain; also called recombinant human Notch1 NRR; human Notch1 NRR immunogen
T1 sequence: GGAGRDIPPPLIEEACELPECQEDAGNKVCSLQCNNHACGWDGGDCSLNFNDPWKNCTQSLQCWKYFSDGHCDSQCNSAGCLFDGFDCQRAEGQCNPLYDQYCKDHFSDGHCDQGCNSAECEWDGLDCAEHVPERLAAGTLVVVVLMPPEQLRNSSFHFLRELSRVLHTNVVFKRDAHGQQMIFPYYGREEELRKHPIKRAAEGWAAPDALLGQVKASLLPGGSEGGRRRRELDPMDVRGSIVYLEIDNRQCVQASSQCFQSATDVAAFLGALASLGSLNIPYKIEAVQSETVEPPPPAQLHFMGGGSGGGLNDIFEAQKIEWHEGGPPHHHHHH
Test: SPR (Biacore T100), antibody captured by anti-human IgG-Fc, NRR_Avi_His as analyte, 1:1 Langmuir model
Please provide measured kon for the entries that follow.
One number for each entry, in M⁻¹ s⁻¹.

humanized 438 VH1.1/VL1.0 (antibody, human IgG1, V domains shown) VH: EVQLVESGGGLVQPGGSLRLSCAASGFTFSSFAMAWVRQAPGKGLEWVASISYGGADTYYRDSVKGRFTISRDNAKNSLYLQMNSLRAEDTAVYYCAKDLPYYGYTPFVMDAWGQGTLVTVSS VL: DIQMTQSPSSLSASVGDRVTITCRASQRINTDLHWYQQKPGKAPKLLIYFASQTISGVPSRFSGSGSGTDFTLTISSLQPEDFATYYCQQSNSWPYTFGQGTKLEIK
47400

Provide each entry's kon from the list below.
1. humanized 438 VH1.0/VL1.1 (antibody, human IgG1, V domains shown) VH: EVQLVESGGGLVQPGGSLRLSCAASGFTFSSFAMAWVRQAPGKGLEWVASISYGGADTYYRDSVKGRFTISRDNAKNSLYLQMNSLRAEDTAVYYCARDLPYYGYTPFVMDAWGQGTLVTVSS VL: DIQLTQSPSSLSASVGDRVTITCRASQRINTDLHWYQQKPGKAPKVLIKFASQTISGVPSRFSGSGSGTDFTLTISSLQPEDFATYYCQQSNSWPYTFGQGTKLEIK
2. parental rat 351 (antibody, V domains shown, Rat monoclonal IgG from a hybridoma) VH: EVQLVESGGGLVQPGRSLKVSCLASGFTFSHYGMNWIRQAPGKGLDWVASISRSGSYIRYVDTVKGRFTVSRDIAKNTLYLQMTSLRSEDTALYYCAREGQFGDYFEYWGQGVMVTVSS VL: DIMLTQSPATLSVTPGERISLSCRASQKISTNLHWYQQKPNESPRILIKYASQTISGIPSRFSGSGSGTDFTLHINTVEPEDFSVYYCQQTNSWPLTFGSGTKLEIK

**A:**
60500
439000

FYI, the data here is from patent US20160002331A1.
